Form field: Concentration (one value per entry).
Test system: T-cell line
Test: Effect (10 uM) on PMA/ION-stimulated T-cell expression of the type 2 cytokine IL-4, which was determined in cell free supernatants by ELISA
Type: functional, cell-based
Conditions: Homo sapiens

MOLECULE: N/C(=N\O)c1cn(C2CCC(CO)O2)c2ncnc(O)c12 (single isomer, unassigned; (+))
ENDPOINT UNIT: pg/mL
Concentration: 152
--
MOLECULE: N/C(=N\O)c1cn([C@@H]2O[C@H](CO)[C@@H](O)[C@H]2O)c2nc[nH]c(=O)c12
ENDPOINT UNIT: pg/mL
Concentration: 236
--
MOLECULE: C[C@@H](O)[C@H]1OC(n2cc(C(=N)NO)c3c(O)ncnc32)[C@H](O)[C@@H]1O (stereo not given in full)
ENDPOINT UNIT: pg/mL
Concentration: 186
--
MOLECULE: N=C(N)C1=CN([C@H]2C[C@H](O)[C@@H](CO)O2)C2=NC=NC(=O)C12 (single isomer, unassigned; (+))
ENDPOINT UNIT: pg/mL
Concentration: 258
--
MOLECULE: C[C@]1(CO)OC(n2cc(C(=N)N)c3c(O)ncnc32)[C@H](O)[C@@H]1O (single isomer, unassigned; (+))
ENDPOINT UNIT: pg/mL
Concentration: 144
--
MOLECULE: N/C(=N\O)c1cn([C@H]2O[C@@H](CO)[C@H](O)[C@@H]2O)c2nc[nH]c(=O)c12
ENDPOINT UNIT: pg/mL
Concentration: 142
--
MOLECULE: N/C(=N\O)c1cn([C@@H]2O[C@H](CO)[C@@H](O)[C@@H]2O)c2nc[nH]c(=O)c12
ENDPOINT UNIT: pg/mL
Concentration: 132
--
MOLECULE: N=C(N)c1cn(C2CCC(CO)O2)c2ncnc(O)c12 (single isomer, unassigned; (+))
ENDPOINT UNIT: pg/mL
Concentration: 234
--
MOLECULE: C[C@H]1OC(n2cc(C(=N)NO)c3c(O)ncnc32)[C@H](O)[C@@H]1O (single isomer, unassigned; (+))
ENDPOINT UNIT: pg/mL
Concentration: 149
--
MOLECULE: C[C@H](O)[C@H]1OC(n2cc(C(=N)NO)c3c(O)ncnc32)[C@H](O)[C@@H]1O (single isomer, unassigned; (+))
ENDPOINT UNIT: pg/mL
Concentration: 162
